# credit: patent US20210318322A1

Target: T1, human VISTA expressed on cells (human, UniProt Q9H7M9 33-295)
T1 sequence: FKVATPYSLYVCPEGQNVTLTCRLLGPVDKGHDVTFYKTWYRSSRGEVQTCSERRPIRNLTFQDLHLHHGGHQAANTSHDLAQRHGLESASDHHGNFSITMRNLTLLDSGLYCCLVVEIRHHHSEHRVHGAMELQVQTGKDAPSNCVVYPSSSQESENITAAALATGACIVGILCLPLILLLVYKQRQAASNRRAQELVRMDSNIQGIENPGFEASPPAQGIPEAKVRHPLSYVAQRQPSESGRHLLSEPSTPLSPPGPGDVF
Assay: cell-based or functional assay
assay_readout: EC50 IFN-gamma production, MLR
Note: state the figure and append the unit.

Using the record for VSTB50 (antibody, human IgG1, kappa, V domains shown, also called S41; INX Code 41) VH: QVQLVQSGSELKKPGASVKVSCKASGYTFTNYGLNWVRQAPGQGLEWMGWINPYTGEPTYADDFKGRFVFSLDTSVSTAYLQICSLKAEDTAVYYCAREGYGNYIFPYWGQGTLVTVSS VL: DIVMTQTPLSLSVTPGQPASISCRASESVDTYANSLMHWYLQKPGQPPQLLIYRASNLESGVPDRFSGSGSGTDFTLKISRVEAEDVGVYYCQQTNEDPRTFGQGTKLEIKR , report its EC50 IFN-gamma production, MLR.
1.14 µg/mL
